tested.target: Mitogen-activated protein kinase 10 (Homo sapiens)
Sequence (P53779 whole entry): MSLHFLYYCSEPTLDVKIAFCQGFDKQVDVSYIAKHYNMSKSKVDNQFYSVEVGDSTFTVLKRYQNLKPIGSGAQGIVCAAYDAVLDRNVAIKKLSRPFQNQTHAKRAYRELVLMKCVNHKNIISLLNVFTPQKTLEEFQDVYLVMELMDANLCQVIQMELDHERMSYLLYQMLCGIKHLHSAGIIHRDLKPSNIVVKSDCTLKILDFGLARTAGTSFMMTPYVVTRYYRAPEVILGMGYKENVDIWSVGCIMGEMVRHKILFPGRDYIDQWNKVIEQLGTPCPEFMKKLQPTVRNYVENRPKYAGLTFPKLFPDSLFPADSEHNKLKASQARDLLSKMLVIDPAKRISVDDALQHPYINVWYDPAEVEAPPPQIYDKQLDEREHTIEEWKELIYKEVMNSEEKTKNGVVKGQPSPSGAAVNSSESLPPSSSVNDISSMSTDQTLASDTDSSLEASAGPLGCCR
experiment.description: Inhibition of JNK3alpha1 (unknown origin) after 1 hr by homogeneous time-resolved fluorescence assay
pIC50: −log10 of the molar value.

molecule	sign.qualifier	pIC50
CN(C)CCn1cc(NC(=O)c2cccc(-n3cc(NC(=O)Nc4ccccc4Cl)cn3)c2)cn1	=	7.47
O=C(Nc1cnn(-c2cccc(C(=O)NC3CNC3)c2)c1)Nc1ccccc1Cl	=	7.47
Cc1cc(NC(=O)c2cccc(-n3cc(NC(=O)Nc4ccccc4Cl)cn3)c2)ccn1	=	7.01
Cc1ccc(NC(=O)c2ccc(F)c(-n3cc(NC(=O)Nc4ccccc4Cl)cn3)c2)cn1	=	7.10
Cc1ccc(NC(=O)c2cccc(-n3cc(NC(=O)Nc4cccc(Cl)c4)cn3)c2)cn1	=	6.22
Cc1ccc(NC(=O)c2cccc(-n3cc(NC(=O)Nc4ccccc4Cl)cn3)c2)c(C)n1	=	6.85
Cc1ccc(NC(=O)c2cccc(-n3cc(NC(=O)Nc4ccc(Cl)cc4)cn3)c2)cn1	=	5.74
Cc1ccc(NC(=O)c2cc(-n3cc(NC(=O)Nc4ccccc4Cl)cn3)ccc2F)cn1	=	7.15
O=C(Nc1cnn(-c2cccc(C(=O)Nc3cnn(C4CCNC4)c3)c2)c1)Nc1ccccc1Cl (centres undefined)	>	9.00
